Cited source: patent US20250250357A1

# OD450 at none (no antibody) per record follows
test_target: T1, human MSLN-R3-3 polypeptide (human)
T1 construct: also called human MSLN-R3-3 protein; hMSLN-R3-3
assay_protocol: ELISA, coated MSLN-R3-3;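 further: chimeric antibodies in serial dilution bound to plate-coated antigen for 2 h at 37 °C, with a negative control antibody alongside, and TMB colour development stopped with HCl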
Numbers only here, please. The scale is OD450.

S009-F1.25.10 (antibody, human IgG1, kappa, V domains shown, Human-murine chimeric antibody, human IgG1/kappa constant regions) VH: EVQLQQSGPELVKPGASLKISCKASGYSFTDYTMNWVKQSHGKNLEWIGLFNPYNGGISYNQKFKGKATLTVDKSSNTAYMELLSLTSDDSAVYFCARDGRGGFYAMDYWGQGTSVTVSS VL: DIQMTQTTSSLSASLGDRVTISCRASQDISIYLNWYQQKPDGPVKLLIYYTSRLHSGVPSRFSGSGSGTDFSLTISNLEQEDIATYFCQQGYTLPPWTFGGGTKLEIKR | 0.07
S009-F1.56.1 (antibody, human IgG1, kappa, V domains shown, Human-murine chimeric antibody, human IgG1/kappa constant regions) VH: EVQLQQSGAEVVKPGASVKLSCTASGFNIRHTYMHWVKQRPEQGLEWIGRIDPANGNTEYDPKFQGKATITADTSSNTAYLQLSSLTSEDTAVYYCARDGWYIDVWGAGTTVTVSS VL: DIVMSQSPSSLAVSVGEKVTMSCKSSQSLLYSNNQKNYLAWYQQKPGQSPKLLIYWASTRESGVPDRFTGSGSGTDFTLTISSVKAEDLAVYYCQRYYSYPWTFGGGTKLEIKR | 0.07

The record that follows has no OD450 at none (no antibody) shown yet.
Enquiry: // lookup OD450 at none (no antibody) for S009-F1.57.1 (antibody, human IgG1, kappa, V domains shown, Human-murine chimeric antibody, human IgG1/kappa constant regions) VH: EAQLQQSGAVFVKPGASVKLSCTASGFSSKDIFLHWVKQRPEQGLEWIGRIDPASDNTIYDPKFQDRATITSDRSSNTAYLQFSSLTSEDTAVYFCLYFDFWGQGTTLTVSS VL: DIVMTQATPSISVTPGESVSISCRSSESLLHSNGNTYLYWFLQRPGQSPQLLIYRMSNLASGVPDRFSVSGSGTAFTLRISRVEAEDVGVYYCMQHLEYPLTFGAGTKLELKR
Return: 0.07
